- target: Plasma kallikrein (Homo sapiens, UniProt P03952)
- Sequence (P03952 20-390 limits assumed): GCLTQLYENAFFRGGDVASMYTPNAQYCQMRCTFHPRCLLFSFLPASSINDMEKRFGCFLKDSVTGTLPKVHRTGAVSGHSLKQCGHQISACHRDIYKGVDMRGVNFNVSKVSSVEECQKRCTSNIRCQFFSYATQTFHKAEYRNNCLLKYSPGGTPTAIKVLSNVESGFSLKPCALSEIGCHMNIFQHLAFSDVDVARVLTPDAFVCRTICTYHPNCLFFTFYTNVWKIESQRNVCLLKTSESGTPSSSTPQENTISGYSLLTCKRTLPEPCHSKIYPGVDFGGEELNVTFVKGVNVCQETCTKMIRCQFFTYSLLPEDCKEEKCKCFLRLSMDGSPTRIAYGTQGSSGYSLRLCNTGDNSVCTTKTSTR
- Sequence (P03952 391-638 limits assumed): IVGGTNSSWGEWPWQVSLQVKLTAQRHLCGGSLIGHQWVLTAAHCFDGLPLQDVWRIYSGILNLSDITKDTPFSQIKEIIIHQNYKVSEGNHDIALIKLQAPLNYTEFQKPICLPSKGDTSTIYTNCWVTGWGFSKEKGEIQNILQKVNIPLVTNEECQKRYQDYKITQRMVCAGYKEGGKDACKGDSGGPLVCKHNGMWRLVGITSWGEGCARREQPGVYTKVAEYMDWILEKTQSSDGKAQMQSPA
- test.description: Inhibition of endogenous human plasma kallikrein using Z-Phe-Arg-AMC.HCl as substrate measured after 5 mins by microplate reader analysis
property.name: IC50 (nM)

Example compounds with recorded IC50:
[
  {
    "compound": "NCc1cccc(-n2nc(C(F)(F)F)cc2C(=O)Nc2cc(C(N)(CCC3CC3)c3ccncc3)ccc2F)c1 (stereo in doubt; 33)",
    "IC50 / nM": 3
  },
  {
    "compound": "NCc1cccc(-n2nc(C(F)(F)F)cc2C(=O)Nc2cccc(C(O)(CCC3CC3)c3ccncc3)c2)c1 (stereo in doubt; 23)",
    "IC50 / nM": 7.6
  },
  {
    "compound": "NCc1cccc(-n2nc(C(F)(F)F)cc2C(=O)Nc2cccc(C(O)(CCC3CC3)c3ccccc3)c2)c1 (stereo in doubt; 11)",
    "IC50 / nM": 1190
  },
  {
    "compound": "N#Cc1cccc(C(N)(CCC2CC2)c2ccc(F)c(NC(=O)c3cc(C(F)(F)F)nn3-c3cccc(CN)c3)c2)n1 (stereo not drawn)",
    "IC50 / nM": 12
  },
  {
    "compound": "NCc1cccc(-n2nc(C(F)(F)F)cc2C(=O)Nc2cccc(C(O)(CCC3CC3)c3cccnc3)c2)c1 (stereo in doubt; 8)",
    "IC50 / nM": 23
  }
]

(1) Cc1cc(C(N)(CCC2CC2)c2ccc(F)c(NC(=O)c3cc(C(F)(F)F)nn3-c3cccc(CN)c3)c2)ccn1 (stereo in doubt; 35)
(2) NCc1cccc(-n2nc(C(F)(F)F)cc2C(=O)Nc2cccc(C(CCC3CC3)c3ccccc3)c2)c1 (stereo not drawn)
Q: Looking only at measured IC50, which entry is lower, 1 or 2 ? State your choice using its label.
Ans: 1
(1: 3 nM, 2: 2030 nM)

The reported measurements were obtained from ChEMBL document CHEMBL5214970.
